Experiment: Aqueous solubility of compound by shake flask method
Assay type: physicochemical
Conditions: water
Binning of solubility thermodynamic into classes: low group (below 1000 µM), middle group (1000 µM to below 2000 µM), high group (2000 µM or more)

O=C(/C=C/c1ccccc1)NCCc1ccc(O)c(O)c1; low group
O=C(N[C@H](CO)Cc1ccc(O)c(O)c1)c1cc(O)cc(O)c1; middle group
O=C(Cc1cc(O)c(O)c(O)c1)NCCc1ccc(O)c(O)c1; high group
COC(=O)[C@H](Cc1ccc(O)c(O)c1)NC(=O)c1cc(O)c(O)c(O)c1; low group
O=C(/C=C/c1ccc(O)c(O)c1)N[C@@H](Cc1ccc(O)c(O)c1)C(=O)O; middle group

We now examine a further compound.
Please classify: O=C(Cc1cc(O)cc(O)c1)NCCc1ccc(O)c(O)c1
middle group

Entry source: ChEMBL document CHEMBL5550149
